Value source: patent US12162819B2

System: C57BL/6 mice
Test: In vivo bioluminescence assay of lipid nanoparticles encapsulated with luciferase mRNA in mice
Conditions: C57BL/6 mice, intravenous, single dose 0.5 mg/kg luciferase mRNA in LNP, 6 h after administration, group mean
REPORTED_ENDPOINT: Total photon count in vivo at 6 hours after administration (Total Flux)
Write the number on its own, no unit after it.

{"MOLECULE": "CCCCCCCCCOC(=O)CC(C)(C)CCCCC(CCCCC(C)(C)CC(=O)OCCCCCCCCC)OC(=O)CCCN(C)C [Compound 97]", "VAL": "3.37E+09"}
{"MOLECULE": "CCCCCCCCCSC(=O)C(C)(C)CCCCCC(CCCCCC(C)(C)C(=O)SCCCCCCCCC)OC(=O)CC1CCN(CCO)CC1 [Compound 110]", "VAL": "2.06E+08"}
{"MOLECULE": "CCCCCCCCCCNC(=O)C(C)(C)CCCCCC(CCCCCC(C)(C)C(=O)NCCCCCCCCCC)OC(=O)CN(C)C [Compound 13]", "VAL": "1.08E+06"}

Query: Notebook: pull reported Total photon count in vivo at 6 hours after administration (Total Flux) for C57BL/6 mice, entry CCCCCCCCN(CCCCCCCC)CCOC(=O)C(C)(C)CCCCCC(CCCCCC(C)(C)C(=O)OCCN(CCCCCCCC)CCCCCCCC)OC(=O)CCN(C)C [Compound 15]
Response: 4.89E+08

----------
Entries and their measured Encapsulation efficiency (%) follow.
Assay: Encapsulation efficiency of lipid nanoparticles, Quant-It RiboGreen RNA Assay
Format: physicochemical
Settings: lipid nanoparticle with the cationic lipid, luciferase mRNA
The figure you give is taken to be in %; do not add the unit.

Query: Tell me the measured Encapsulation efficiency (%) of CCCCCCCCCOC(=O)C(C)(C)CCCCCC(CCCCCC(C)(C)C(=O)OCCCCCCCCC)OC(=O)CCN(C)C [Compound 3] , please.
Response: 86.88

Query: How about this compound: CCCCCCCCCOC(=O)C(C)(C)CCCCCC(CCCCCC(C)(C)C(=O)OCC(CCCCC)CCCCCCC)OC(=O)CCCN(C)C (stereo not shown) [Compound 46]
Response: 95.68

----------
Assay: Encapsulation efficiency of lipid nanoparticles, Quant-It RiboGreen RNA Assay
Assay type: physicochemical
Details: lipid nanoparticle with the cationic lipid, luciferase mRNA
REPORTED_ENDPOINT: Encapsulation efficiency (%)
I only need the number, in %, no unit after it.

Some solved cases for reference:
{"COMPOUND": "CCCCCCCCCCSC(=O)C(C)(C)CCCCCC(CCCCCC(C)(C)C(=O)SCCCCCCCCCC)OC(=O)CCCN(C)C [Compound 34]", "VAL": 90.29}
{"COMPOUND": "CCCCCCCCC(CCCCCC)OC(=O)C(C)(C)CCCCCC(CCCCCC(C)(C)C(=O)OC(CCCCCC)CCCCCCCC)OC(=O)CCN(C)C (stereo not shown) [Compound 16]", "VAL": 96.52}
{"COMPOUND": "CCCCCCCCCCNC(=O)C(C)(C)CCCCCC(CCCCCC(C)(C)C(=O)NCCCCCCCCCC)OC(=O)CCCN(C)C [Compound 14]", "VAL": 45.66}

In the following, a different compound is considered.
Query: I would be grateful if you could share the reported Encapsulation efficiency (%) for CCCCCCCCCOC(=O)C(C)(C)CCCCCCC(CCCCCCC(C)(C)C(=O)OCC(CCCCC)CCCCCCC)OC(=O)CCCCN(C)C (stereo not shown) [Compound 126] .
Response: 94.35

----------
Test: Encapsulation efficiency of lipid nanoparticles, Quant-It RiboGreen RNA Assay
Format: physicochemical
Settings: lipid nanoparticle with the cationic lipid, luciferase mRNA
Measured Encapsulation efficiency (%) values are reported for all entries that follow.
Write the number in % without appending the unit.

Sample answers from the record:
{"COMPOUND": "CCCCCCC#CCCOC(=O)C(C)(C)CCCCCC(CCCCCC(C)(C)C(=O)OCCC#CCCCCCC)OC(=O)CCCN(C)C", "UNITS": "%", "Encapsulation efficiency (%)": 60.98}
{"COMPOUND": "CCCCCCCCCCSC(=O)C(C)(C)CCCCCC(CCCCCC(C)(C)C(=O)SCCCCCCCCCC)OC(=O)CCN(C)C", "UNITS": "%", "Encapsulation efficiency (%)": 88.67}

Query: I have this compound here, CCCCCCCCCOC(=O)C(C)(C)CCCCCC(CCCCCC(C)(C)C(=O)OCC(CCCCC)CCCCCCC)OC(=O)CC1CCN(CCO)CC1 (centres unmarked) , and I need its recorded Encapsulation efficiency (%).
Response: 93.41

Query: Let us now turn to CCCCCCCCCSC(=O)C(C)(C)CCCCCC(CCCCCC(C)(C)C(=O)SCCCCCCCCC)OC(=O)C1CCN(C(C)C)CC1
Response: 83.74

Query: Now consider CCCCCCCCCCOC(=O)C(C)(C)CCCCCC(CCCCCC(C)(C)C(=O)OCCCCCCCCCC)OC(=O)CCN1CCCC1 and answer again.
Response: 91.66

Query: Now this one: CCCCCCCC#CCOC(=O)C(C)(C)CCCCCC(CCCCCC(C)(C)C(=O)OCC#CCCCCCCC)OC(=O)CCCN(C)C
Response: 70.22

Query: Now consider CCCCCCCCN(CCCCCCCC)CCOC(=O)C(C)(C)CCCCCC(CCCCCC(C)(C)C(=O)OCCN(CCCCCCCC)CCCCCCCC)OC(=O)CCN(C)C and answer again.
Response: 84.78

----------
Test: Encapsulation efficiency of lipid nanoparticles, Quant-It RiboGreen RNA Assay
Format: physicochemical
Conditions: lipid nanoparticle with the cationic lipid, luciferase mRNA
Labelling field: enter true if recorded Encapsulation efficiency (%) is less than 80%. Enter false if it equals or exceeds that cut-off.

{"COMPOUND": "CC(C)CCCC(C)CCOC(=O)C(C)(C)CCCCCC(CCCCCC(C)(C)C(=O)OCCC(C)CCCC(C)C)OC(=O)CCN(C)C (stereo not shown)", "ASSIGNED_CATEGORY": "false"}
{"COMPOUND": "CCCCCCCCCCSC(=O)C(C)(C)CCCCCC(CCCCCC(C)(C)C(=O)SCCCCCCCCCC)OC(=O)C1CCN(C)CC1", "ASSIGNED_CATEGORY": "false"}
{"COMPOUND": "CCCCCCCCCOC(=O)C(C)(C)CCCCCCC(CCCCCCC(C)(C)C(=O)OCC(CCCCC)CCCCCCC)OC(=O)CCCN(C)C (stereo not shown)", "ASSIGNED_CATEGORY": "false"}
{"COMPOUND": "CCCCCCCCCOC(=O)C(C)(C)CCCCCC(CCCCCC(C)(C)C(=O)SCCCCCCCCC)OC(=O)CCCN(C)C (stereo not shown)", "ASSIGNED_CATEGORY": "false"}
{"COMPOUND": "CCCCCCCCCCNC(=O)C(C)(C)CCCCCC(CCCCCC(C)(C)C(=O)NCCCCCCCCCC)OC(=O)CCN(C)C", "ASSIGNED_CATEGORY": "true"}
{"COMPOUND": "CCCCCCC#CCOC(=O)C(C)(C)CCCCCC(CCCCCC(C)(C)C(=O)OCCCCCCCCC)OC(=O)CCCN(C)C (stereo not shown)", "ASSIGNED_CATEGORY": "true"}

Query: Record CCCCCCCCOC(=O)C(C)(C)CCCCCC(CCCCCC(C)(C)C(=O)OCCCCCCCC)OC(=O)C1CCN(C(C)C)CC1 : is its Encapsulation efficiency (%) strictly below 80%?
Response: true

----------
Assay: Particle size and PDI of lipid nanoparticles by dynamic light scattering
Type: physicochemical
Settings: lipid nanoparticle with the cationic lipid, cholesterol, DSPC, DMG-PEG2000 (50/38.5/10/1.5 mol%), luciferase mRNA, N/P 6
Recorded Particle size (nm) by entry
Enter your answer as a number in nm; do not include the unit.

See these solved cases before continuing.
{"COMPOUND": "CCCCCCCCC(CCCCCC)OC(=O)C(C)(C)CCCCCC(CCCCCC(C)(C)C(=O)OC(CCCCCC)CCCCCCCC)OC(=O)CCN(C)C (stereo not shown) [Compound 16]", "Particle size (nm)": 55.39}
{"COMPOUND": "CCCCCCC#CCCOC(=O)C(C)(C)CCCCCC(CCCCCC(C)(C)C(=O)OCCC#CCCCCCC)OC(=O)CCCN(C)C [Compound 24]", "Particle size (nm)": 133.72}
{"COMPOUND": "CC/C=C\\CCCCCOC(=O)C(C)(C)CCCCCC(CCCCCC(C)(C)C(=O)OCCCCC/C=C\\CC)OC(=O)CCN(C)C [Compound 7]", "Particle size (nm)": 203.67}

Query: Endpoint output: Particle size (nm) of CCCCCCCCCSC(=O)C(C)(C)CCCCCC(CCCCCC(C)(C)C(=O)SCCCCCCCCC)OC(=O)CC1CCN(CCO)CC1 [Compound 110] . Value?
Response: 97.59

Query: And CCCCCCCCCCSC(=O)C(C)(C)CCCCCC(CCCCCC(C)(C)C(=O)SCCCCCCCCCC)OC(=O)CCCCCN(C)C [Compound 36] ?
Response: 88.33
